# measuredTarget: GABA-A receptor; anion channel (Rattus norvegicus) (UniProt O09028+P15431+P18506+P18508+P19969+P20236+P23574+P23576+P28471+P28473+P30191+P62813+P63079+P63138+Q91ZM7+Q9ES14)
# testName: In vitro displacement of [3H]muscimol from Gamma-aminobutyric acid A receptor of rat brain membrane preparations at 10 uM
Each entry below carries its recorded Displacement.
property: Displacement (%)

[[record]]
molsmiles = "O=C1C=C[C@@H]([C@@H]2c3cc4c(cc3CCN2C(=O)OCc2ccccc2)OCO4)O1"
property = "Displacement"
reportedresult = -5

[[record]]
molsmiles = "CN1CCc2cc3c(cc2[C@H]1[C@@H]1OC(=O)c2c1ccc1c2OCO1)OCO3"
property = "Displacement"
reportedresult = 45

[[record]]
molsmiles = "COc1cc2c(cc1OC)[C@@H]([C@H]1C=CC(=O)O1)N(C(=O)OCc1ccccc1)CC2"
property = "Displacement"
reportedresult = 7

[[record]]
molsmiles = "CC1=C[C@H]([C@@H]2c3ccccc3CCN2C(=O)OCc2ccccc2)OC1=O"
property = "Displacement"
reportedresult = -4

[[record]]
molsmiles = "O=C1C=C[C@H]([C@@H]2c3cc4c(cc3CCN2C(=O)OCc2ccccc2)OCO4)O1"
property = "Displacement"
reportedresult = -7

[[record]]
molsmiles = "O=C1C=C[C@H]([C@@H]2c3ccccc3CCN2C(=O)OCc2ccccc2)O1"
property = "Displacement"
reportedresult = -9

[[record]]
molsmiles = "O=C1C=C[C@@H]([C@@H]2c3ccccc3CCN2C(=O)OCc2ccccc2)O1"
property = "Displacement"
reportedresult = -12

[[record]]
molsmiles = "O=C1CC[C@@H]([C@@H]2c3ccccc3CCN2C(=O)OCc2ccccc2)O1"
property = "Displacement"
reportedresult = -18

[[record]]
molsmiles = "CC1=C[C@@H]([C@@H]2c3ccccc3CCN2C(=O)OCc2ccccc2)OC1=O"
property = "Displacement"
reportedresult = -7

